Entries and their pKi values follow.
- System: ROCK I (Homo sapiens)
- Sequence (Q13464 whole entry): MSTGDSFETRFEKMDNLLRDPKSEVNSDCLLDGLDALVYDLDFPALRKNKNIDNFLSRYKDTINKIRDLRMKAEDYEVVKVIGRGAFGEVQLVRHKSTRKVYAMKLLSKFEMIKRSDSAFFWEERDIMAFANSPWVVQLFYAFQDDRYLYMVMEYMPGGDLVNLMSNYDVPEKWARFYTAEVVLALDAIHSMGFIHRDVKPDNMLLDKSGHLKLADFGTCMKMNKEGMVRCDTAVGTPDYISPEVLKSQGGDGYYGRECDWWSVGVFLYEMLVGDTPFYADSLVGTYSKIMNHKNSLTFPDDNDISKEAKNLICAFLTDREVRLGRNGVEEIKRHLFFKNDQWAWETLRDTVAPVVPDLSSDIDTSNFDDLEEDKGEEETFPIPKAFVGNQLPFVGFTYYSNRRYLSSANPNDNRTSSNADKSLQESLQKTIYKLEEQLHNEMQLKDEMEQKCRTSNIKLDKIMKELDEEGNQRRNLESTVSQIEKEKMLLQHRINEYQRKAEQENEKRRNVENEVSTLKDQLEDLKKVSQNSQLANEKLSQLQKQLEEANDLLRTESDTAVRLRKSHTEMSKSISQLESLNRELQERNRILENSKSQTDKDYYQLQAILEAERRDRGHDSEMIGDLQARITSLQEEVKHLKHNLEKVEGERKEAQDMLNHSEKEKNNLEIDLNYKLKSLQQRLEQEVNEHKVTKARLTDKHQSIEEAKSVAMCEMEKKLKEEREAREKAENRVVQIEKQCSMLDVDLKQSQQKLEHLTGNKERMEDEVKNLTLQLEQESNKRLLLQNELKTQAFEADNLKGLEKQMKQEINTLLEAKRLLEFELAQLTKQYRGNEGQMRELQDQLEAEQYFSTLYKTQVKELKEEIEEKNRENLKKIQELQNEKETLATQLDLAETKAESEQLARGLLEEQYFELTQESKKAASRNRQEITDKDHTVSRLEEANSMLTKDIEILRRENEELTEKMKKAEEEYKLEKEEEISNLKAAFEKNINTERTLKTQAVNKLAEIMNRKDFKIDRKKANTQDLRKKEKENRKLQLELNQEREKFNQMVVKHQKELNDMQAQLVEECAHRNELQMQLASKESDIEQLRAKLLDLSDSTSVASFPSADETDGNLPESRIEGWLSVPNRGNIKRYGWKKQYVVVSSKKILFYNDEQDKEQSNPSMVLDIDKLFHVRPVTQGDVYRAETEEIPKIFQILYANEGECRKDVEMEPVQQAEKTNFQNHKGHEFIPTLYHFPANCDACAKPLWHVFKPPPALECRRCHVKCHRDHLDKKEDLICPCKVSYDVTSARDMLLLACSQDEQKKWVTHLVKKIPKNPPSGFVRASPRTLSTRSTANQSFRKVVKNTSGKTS
- Method Description: ROCK-I inhibition assay (radioactive enzyme assay, MBP substrate)
- Type: biochemical
- Test Conditions: enzyme inhibition, Ki(app), Table 5
pKi: −log10 of the molar value.
Measurement Label: pKi

INSERT INTO assay_data (compound, system, test_value) VALUES
  ('CN1CCN(C(=O)c2cccc(-c3ccnc4[nH]ccc34)c2)CC1 [compound 95]', 'ROCK I (Homo sapiens)', '5.30 to 6.30'),
  ('Nc1cccc(-c2ccnc3[nH]ccc23)c1 [compound 114]', 'ROCK I (Homo sapiens)', '> 6.30'),
  ('c1cc(CN2CCCCC2)cc(-c2ccnc3[nH]ccc23)c1 [compound 87]', 'ROCK I (Homo sapiens)', '5.30 to 6.30'),
  ('Clc1ccccc1CCNc1cccc(-c2ccnc3[nH]ccc23)n1 [compound 34]', 'ROCK I (Homo sapiens)', '5.30 to 6.30'),
  ('COCc1cccc(-c2ccnc3[nH]ccc23)c1 [compound 62]', 'ROCK I (Homo sapiens)', '> 6.30'),
  ('C=C(c1c(Cl)cnc2[nH]ccc12)C1CCCC1 [compound 67]', 'ROCK I (Homo sapiens)', '5.30 to 6.30'),
  ('N#CC1(c2cccc(-c3ccnc4[nH]ccc34)n2)CC1 [compound 101]', 'ROCK I (Homo sapiens)', '> 6.30'),
  ('CC(C)C[C@@H](CO)Nc1cccc(-c2ccnc3[nH]ccc23)n1 [compound 59]', 'ROCK I (Homo sapiens)', '5.30 to 6.30'),
  ('CCC(CO)NC(=O)c1ccc(-c2ccnc3[nH]ccc23)s1 (racemic) [compound 14]', 'ROCK I (Homo sapiens)', '> 6.30'),
  ('Clc1ccc(-c2ccnc3[nH]ccc23)cc1Cl [compound 41]', 'ROCK I (Homo sapiens)', '> 6.30'),
  ('OCc1cccc(-c2ccnc3[nH]ccc23)c1 [compound 49]', 'ROCK I (Homo sapiens)', '> 6.30'),
  ('Nc1ccccc1-c1c(Cl)cnc2[nH]ccc12 [compound 129]', 'ROCK I (Homo sapiens)', '5.30 to 6.30'),
  ('Nc1ccccc1-c1ccnc2[nH]ccc12 [compound 119]', 'ROCK I (Homo sapiens)', '5.30 to 6.30'),
  ('Oc1cccc(-c2ccnc3[nH]ccc23)c1 [compound 105, 3-(1H-Pyrrolo[2,3-b]pyridin-4-yl)-phenol]', 'ROCK I (Homo sapiens)', '> 6.30'),
  ('CC(=O)N(Cc1ccccc1)c1cc(-c2ccnc3[nH]ccc23)cs1 [compound 21]', 'ROCK I (Homo sapiens)', '5.30 to 6.30'),
  ('c1cc(-c2ccnc3[nH]ccc23)[nH]n1 [compound 106]', 'ROCK I (Homo sapiens)', '> 6.30'),
  ('CC(C)(C)OC(=O)N1CC=C(c2ccnc3[nH]ccc23)CC1 [compound 44]', 'ROCK I (Homo sapiens)', '> 6.30');

* * *

Entries and their Ki values follow.
- System: JAK2 (Homo sapiens)
- Sequence (O60674 whole entry): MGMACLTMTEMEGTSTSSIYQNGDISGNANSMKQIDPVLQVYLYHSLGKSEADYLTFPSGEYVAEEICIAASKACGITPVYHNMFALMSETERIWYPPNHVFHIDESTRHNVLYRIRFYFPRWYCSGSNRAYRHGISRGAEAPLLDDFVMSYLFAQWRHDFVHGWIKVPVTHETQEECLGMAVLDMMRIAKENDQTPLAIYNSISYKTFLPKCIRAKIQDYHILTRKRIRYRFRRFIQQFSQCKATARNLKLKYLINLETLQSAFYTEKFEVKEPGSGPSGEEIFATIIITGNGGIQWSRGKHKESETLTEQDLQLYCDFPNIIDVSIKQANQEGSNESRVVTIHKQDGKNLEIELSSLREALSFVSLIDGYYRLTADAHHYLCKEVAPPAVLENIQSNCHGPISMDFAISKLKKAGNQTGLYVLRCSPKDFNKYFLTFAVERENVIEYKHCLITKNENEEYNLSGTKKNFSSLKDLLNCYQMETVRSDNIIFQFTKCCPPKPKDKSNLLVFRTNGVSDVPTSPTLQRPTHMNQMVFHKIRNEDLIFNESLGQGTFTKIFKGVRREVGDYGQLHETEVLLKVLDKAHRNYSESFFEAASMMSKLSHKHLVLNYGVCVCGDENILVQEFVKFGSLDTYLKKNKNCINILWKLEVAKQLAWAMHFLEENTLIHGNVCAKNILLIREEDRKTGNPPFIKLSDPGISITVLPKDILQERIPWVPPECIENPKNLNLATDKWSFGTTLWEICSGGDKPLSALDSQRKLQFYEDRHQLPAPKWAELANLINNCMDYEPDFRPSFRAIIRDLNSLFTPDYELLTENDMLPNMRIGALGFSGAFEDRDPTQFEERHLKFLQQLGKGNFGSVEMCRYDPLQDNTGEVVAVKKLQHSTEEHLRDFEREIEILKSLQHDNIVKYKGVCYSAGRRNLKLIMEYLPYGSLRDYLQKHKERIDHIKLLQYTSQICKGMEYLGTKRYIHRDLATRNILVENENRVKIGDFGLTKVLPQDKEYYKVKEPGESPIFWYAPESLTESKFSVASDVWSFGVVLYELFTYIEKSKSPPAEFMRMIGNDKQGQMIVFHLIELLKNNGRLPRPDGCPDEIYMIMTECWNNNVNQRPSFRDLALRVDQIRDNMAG
- Method Description: JAK2 inhibition assay (as Example 3 with JAK-2 enzyme)
- Assay type: biochemical
- Test Conditions: Table 6; enzyme inhibition data (Ki)
Measurement Label: Ki

INSERT INTO measurements (molecule, test_value) VALUES
  ('O=C(NCC(F)(F)F)c1ccc(-c2ccnc3[nH]ccc23)s1 [compound 260]', '< 500 nM'),
  ('O=C(c1cc(-c2c(Cl)cnc3[nH]ccc23)c[nH]1)N1CCC(CO)CC1 [compound 347]', '< 500 nM'),
  ('Clc1ccc(Cl)c(-c2ccnc3[nH]ccc23)c1 [compound 211]', '500 to 5000 nM'),
  ('C#CCOC(=O)N1CC[C@H](Nc2c(Cl)cnc3[nH]ccc23)C1 [compound 165]', '< 500 nM'),
  ('COc1ccc(F)cc1-c1ccnc2[nH]ccc12 [compound 205]', '500 to 5000 nM'),
  ('O=C(NCCC(F)(F)F)c1cccc(-c2ccnc3[nH]ccc23)c1 [compound 252]', '500 to 5000 nM'),
  ('Cc1ccc(F)c(-c2ccnc3[nH]ccc23)c1Cl [compound 244]', '> 5000 nM'),
  ('CCCOC(=O)N1CCCC(Nc2c(Cl)cnc3[nH]ccc23)C1 (centres unmarked) [compound 174]', '< 500 nM'),
  ('Cc1ccc(-c2c(Cl)cnc3[nH]ccc23)s1 [compound 140]', '< 500 nM'),
  ('O=S(=O)(C1CC1)N1CC[C@H](Nc2c(Cl)cnc3[nH]ccc23)C1 [compound 179]', '< 500 nM'),
  ('O=C(NCC(F)(F)F)c1cccc(-c2ccnc3[nH]ccc23)c1 [compound 251]', '500 to 5000 nM'),
  ('N#CCCN(CC1CC1)C(=O)c1cc(-c2c(F)cnc3[nH]ccc23)c[nH]1 [compound 398]', '< 500 nM'),
  ('CCOC(=O)C1CCN(C(=O)c2cc(-c3c(Cl)cnc4[nH]ccc34)c[nH]2)CC1 [compound 348]', '500 to 5000 nM'),
  ('CCOc1ccc(Cl)cc1-c1ccnc2[nH]ccc12 [compound 237]', '500 to 5000 nM'),
  ('N#CCN(Cc1ccccc1)C(=O)c1cc(-c2c(F)cnc3[nH]ccc23)c[nH]1 [compound 391]', '< 500 nM'),
  ('Clc1cnc2[nH]ccc2c1-c1cc2ccccc2o1 [compound 138]', '< 500 nM'),
  ('O=C(c1cc(-c2c(F)cnc3[nH]ccc23)c[nH]1)N(CCC(F)(F)F)CC1CC1 [compound 390]', '< 500 nM');
